These entries and their values trace back to paper PMC6563049.

TGT: human TSPO wild‐type (Homo sapiens, UniProt P30536)
Construct: expressed in transfected cells; host or cells: HEK cells, stably transfected; membranes
Sequence (P30536 whole entry T147A): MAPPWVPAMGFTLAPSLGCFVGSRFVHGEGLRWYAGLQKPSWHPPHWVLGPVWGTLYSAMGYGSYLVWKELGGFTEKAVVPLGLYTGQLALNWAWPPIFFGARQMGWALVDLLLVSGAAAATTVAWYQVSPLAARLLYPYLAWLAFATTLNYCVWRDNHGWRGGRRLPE
PROCEDURE SUMMARY: Radioligand ([^3H]1) displacement binding on membranes of HEK cells stably transfected with wild-type TSPO
CONDITION: HEK cell membranes, [^3H]1 10 nM, 4 °C, 90 min; mean±SEM, n=3; read-out: Ki (nM) at WT (Ala/Ala) HAB
Description: Binding affinities were measured as per our published protocol.21 Briefly, an Ultra‐Turrax homogeniser was used to prepare membranes from HEK cells stably transfected with wild‐type and A147T TSPO. […] Microscint 0 was added to the dry filters, and radioactivity read in a Microbeta^2 2450 Microplate Counter (PerkinElmer). Data were analysed using GraphPad Prism 6.0, and a four‐parameter nonlinear regression curve fit was used to calculate K i values. […]
# Lookup of reported Ki keyed by entry
# value in nM; strip the unit string

Query string: Write down the reported Ki of CCN(CC)C(=O)[C@H]1CCCc2c1c1c(OC)cccc1n2CCF [(S)-5] , test system: human TSPO wild‐type (Homo sapiens, UniProt P30536).
Result string: 11.3

Query string: Write down the reported Ki of CCN(Cc1ccccc1)C(=O)[C@H]1CCCc2c1c1c(OC)cccc1n2CCF [(S)-6] , test system: human TSPO wild‐type (Homo sapiens, UniProt P30536).
Result string: 36.3

###

TGT: TSPO A147T (Homo sapiens)
Construct: expressed in transfected cells; host or cells: HEK cells, stably transfected; membranes
Sequence (P30536 whole entry, stated change not applied): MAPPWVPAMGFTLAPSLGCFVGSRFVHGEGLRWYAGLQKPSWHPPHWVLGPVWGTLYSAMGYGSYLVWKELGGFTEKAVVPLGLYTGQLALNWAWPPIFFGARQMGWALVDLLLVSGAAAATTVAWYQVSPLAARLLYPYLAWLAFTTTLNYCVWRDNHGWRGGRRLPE
PROCEDURE SUMMARY: Radioligand ([^3H]1) displacement binding on membranes of HEK cells stably transfected with A147T TSPO
CONDITION: HEK cell membranes, [^3H]1 10 nM, 4 °C, 90 min; mean±SEM, n=3; read-out: Ki (nM) at Ala147Thr LAB
Method: Binding affinities were measured as per our published protocol.21 Briefly, an Ultra‐Turrax homogeniser was used to prepare membranes from HEK cells stably transfected with wild‐type and A147T TSPO. […] Data were analysed using GraphPad Prism 6.0, and a four‐parameter nonlinear regression curve fit was used to calculate K i values. Data are expressed as the mean±SEM from at least three independent experiments.
OBSERVATION TYPE: Ki

Query string: Query: Ki; subject: CCN(CC)C(=O)[C@H]1CCCc2c1c1c(OC)cccc1n2CCF [(S)-5]
Result string: 58.3 nM
